Target chain: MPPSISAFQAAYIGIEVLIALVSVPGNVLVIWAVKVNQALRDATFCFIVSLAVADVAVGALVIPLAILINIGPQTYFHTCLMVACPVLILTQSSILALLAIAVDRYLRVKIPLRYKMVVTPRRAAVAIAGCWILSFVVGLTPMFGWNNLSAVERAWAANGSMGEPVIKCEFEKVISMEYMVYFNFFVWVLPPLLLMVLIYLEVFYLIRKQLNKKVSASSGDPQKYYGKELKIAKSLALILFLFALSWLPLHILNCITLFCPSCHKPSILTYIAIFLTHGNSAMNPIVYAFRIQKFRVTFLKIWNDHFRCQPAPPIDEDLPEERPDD
pKi: −log10 of the molar value.
For reference, the following pKi results for the protein given by its sequence were taken from various sources.

MOLECULE	MODIFIER	pKi
CCCN(CCC)S(=O)(=O)c1ccc(NC(=O)Nc2ncnc3c2ncn3C2O[C@H](C(=O)NCC)C(O)C2O)cc1 (single isomer, unassigned)	=	6.46
CCOC(=O)c1cnc(NC(=O)Cc2ccccc2)n2nc(-c3ccco3)nc12	<	4.00
Cn1cc2c(nc(N(Cc3ccccc3)Cc3ccccc3)n3nc(-c4ccco4)nc23)n1	=	6.15
Cc1cc(C)n(-c2nc(NC(=O)CN3CCN(C)CC3)cc(-c3ocnc3C)n2)n1	<	5.00
CCNC(=O)[C@H]1O[C@@H](n2cnc3c(NNC(=O)c4ccco4)ncnc32)[C@H](O)[C@@H]1O	=	5.98
N#Cc1c(N)nc(SCc2ccncc2)c(C#N)c1-c1ccco1	=	7.40
CCOC(=O)c1nn(-c2cccc(Cl)c2)c(=O)c2c(N)scc12	=	8.24
CCCn1cc2c(nc(N)n3nc(-c4ccco4)nc23)n1	=	8.00
Nc1nc(CCCc2ccccc2)nc2cn(-c3ccccc3O)nc12	=	7.77
